The reported measurements were obtained from patent US11078251B2.

Molecular target: recombinant HLA-A2 molecules (Homo sapiens, UniProt P04439, D140Y/D185E/D98H/E176V/E277Q/G131W/G231S/I119V/I121R/I166T/I218V/N151K/N90K/P208A/P217A/Q86G/Q94H/R138H/R169H)
Assay: Affinity and stability measurements of recombinant HLA-A2 molecules complexed with peptide
Type: binding
Conditions: recombinant HLA-A2 complexed with peptide; data not shown
No end group written: not given here.
MEASURE: Kd (µM)

chain="AVAANIVLTV [ZnT8185-194]" measure=Kd number=0.207
